Hey, just so you know, these numbers are from ChEMBL document CHEMBL4190230.

# Test system: HL-60
# TEST_SUMMARY: Antiproliferative activity against human HL60 cells after 48 hrs by MTS assay
# Format: functional, cell-based
# ASSAY_SETUP: HL-60, 48 h
pIC50: −log10 of the molar value.
ENDPOINT_LABEL: pIC50

Consider the reported pIC50 for these molecules:
COMPOUND: C=C1[C@@H](O)[C@@]23CC[C@@H]4C(C)(C)[C@H](O)CC[C@@]4(C)[C@@H]2[C@@H](O)C[C@]1(O)C3
pIC50: < 4.40
--
COMPOUND: C=C1C(=O)[C@]23C[C@@]1(O)C[C@H](OC(C)=O)[C@H]2[C@@]1(C)[C@H](C[C@H]3O)[C@](C)(CO)CC[C@@H]1O
pIC50: < 4.40
--
COMPOUND: C=C1[C@@H](O)[C@@]23CC[C@@H]4[C@@](C)(CO)CCC[C@@]4(C)[C@@H]2[C@@H](OC(C)=O)C[C@]1(O)C3
pIC50: < 4.40

// query What does the data say about its pIC50? Entry: C=C1[C@@H](O)[C@@]23CC[C@H]4[C@@](C)(CCC[C@@]4(C)C=O)[C@@H]2[C@@H](OC(C)=O)C[C@]1(O)C3
// result < 4.40

// query Consider the molecule shown here: C=C1C(=O)[C@@]23CC[C@@H]4C(C)(C)[C@@H](O)CC[C@@]4(C)[C@@H]2[C@@H](OC(C)=O)C[C@]1(O)C3 What is its recorded pIC50?
// result 6.00

// query pIC50 value for entry C[C@@]1(CO)CCC[C@@]2(C)[C@H]1C[C@@H](O)C1=CC(=O)CC[C@@]12O
// result < 4.40

###

# System: HL-60
# TEST_SUMMARY: Antiproliferative activity against human HL60 cells after 48 hrs by MTS assay
# Type: functional, cell-based
# ASSAY_SETUP: HL-60, 48 h
ENDPOINT_LABEL: IC50

Worked set:
COMPOUND: C=C1[C@@H](O)[C@@]23CC[C@@H]4C(C)(C)[C@H](O)CC[C@@]4(C)[C@@H]2[C@@H](OC(C)=O)C[C@]1(O)C3
IC50: > 40 µM

COMPOUND: CC(=O)O[C@H]1C(=O)[C@@]2(C)[C@H]([C@H](OC(=O)c3ccccc3)[C@]3(O)C[C@H](OC(=O)[C@H](O)[C@@H](NC(=O)c4ccccc4)c4ccccc4)C(C)=C1C3(C)C)[C@]1(OC(C)=O)CO[C@@H]1C[C@@H]2O
IC50: < 0.008 µM

COMPOUND: C=C1C(=O)[C@]23C[C@@]1(O)C[C@H](OC(C)=O)[C@H]2[C@@]1(C)[C@H](C[C@H]3O)C(C)(C)CC[C@@H]1O
IC50: 7 µM

// query Tell me the measured IC50 of C=C1C(=O)[C@]23C[C@@]1(O)C[C@H](OC(C)=O)[C@H]2[C@@]1(C)[C@H](C[C@H]3O)[C@](C)(COC(C)=O)CC[C@@H]1O , please.
// result 3.2 µM

// query What value of IC50 has been recorded for this entry: C=C1[C@@H](O)[C@@]23CC[C@@H]4C(C)(C)[C@@H](O)CC[C@@]4(C)[C@@H]2[C@@H](OC(C)=O)C[C@]1(O)C3
// result > 40 µM

// query Quick check: IC50 of C=C1[C@@H](O)[C@@]23CC[C@@H]4[C@@](C)(CO)CCC[C@@]4(C)[C@@H]2[C@@H](O)C[C@]1(O)C3 ?
// result > 40 µM
